system: SW-620 colon; experiment: NCI tumour cell line growth inhibition, 48 h; in the data active = GI50 below about 0.43 µM; inactive = the rest
Write down the outcome that applies. Available outcomes: t for active, f for inactive

Answered examples (8):
| Molecule | Class Label |
| --- | --- |
| O=c1oc2ccc(F)cc2c(=O)n1-c1ccc(Br)cc1F | f |
| COc1cc(-n2cc(-c3cc(O)c(C/C=C(\C)CCC=C(C)C)c(O)c3)nn2)cc2c1O[C@]1(C)CC[C@@H](O)C(C)(C)[C@H]1C2 | f |
| COc1cc2nnn3c4ncccc4c(N=O)c3c2cc1OC | t |
| Cn1cnc([N+](=O)[O-])c1Sc1nc(N)nc2nc[nH]c12 | f |
| COc1cc2cc(Oc3ccc(NC(=O)c4cccc5c4OCCO5)cc3)c(C)nc2cc1OC | f |
| C=CC1=CC(C)C[C@]1(O)C(=O)OC (some centres undefined) | f |
| COc1ccc(/C=C(/C(=O)n2cnnn2)c2cc(OC)c(OC)c(OC)c2)cc1 | f |
| CCC(=O)c1cc([N+](=O)[O-])c(Br)s1 | f |

Turning to the following molecule.
[in] Give the logged outcome of this assay for the following molecule: Cc1ccc(/C=C2\CNC/C(=C\c3ccc(C)cc3)C2=O)cc1
[out] f

* * *

system: SF-539 CNS; test: NCI tumour cell line growth inhibition, 48 h
Property: log10 TGI (log10 of the value in µM)
Could you please treat all values as log10 of TGI in µM?

Here's what some known entries look like.
| Compound | log10 TGI |
| --- | --- |
| O=C(CCN1CCCC1)Nc1ccc2c(Nc3ccccc3)c3ccccc3nc2c1 | 0.39 |
| O=C(Nc1ccc(Cl)cc1)Nc1ccccc1CNc1nc(Nc2ccc(OCCN3CCCC3)cc2)ncc1Cl | 0.21 |
| CN(C)CCCC1(c2ccc(F)cc2)OCc2cc(-c3cncc4ccccc34)ccc21 (centres undefined) | 0.52 |
| O=c1[nH]c2cc(Cl)c(Cl)cc2n2cc3ccccc3c12 | 1.60 |
| O=C(/C=C/c1ccco1)c1cccc(C(=O)/C=C/c2ccco2)n1 | 1.24 |

Required: log10 TGI, one value per compound below.
1. CC(C)CCCC(C)[C@H]1CC[C@H]2N=C(Nc3ccccc3)CCC[C@]12C (some centres undefined)
2. NC(N)=N/N=C/c1c(-c2ccc(Cl)c([N+](=O)[O-])c2)nc2n1CCS2

[out]
1. 0.52
2. 1.42

Required: log10 TGI, one value per compound below.
1. CC[C@@]1(O)C(=O)OCc2c1cc1n(c2=O)Cc2cc3c(N)cccc3nc2-1
2. C/C(=N/O)c1ccc2c(c1)C(=NO)c1cc(/C(C)=N/O)ccc1-2

[out]
-1.74
1.50

* * *

Exercise: for every item that follows, state its recorded GI50.
test system: HCT-15 colon; experiment: NCI tumour cell line growth inhibition, 48 h

Here's what some known entries look like.
| Molecular String | Measured Target | GI50 |
| --- | --- | --- |
| NC(=O)c1cc(I)ccc1NC(=O)COc1ccccc1 | HCT-15 colon | 0.33 µM |
| C1=C2CNCC3=Cc4ccc5ccccc5c4OC23Oc2c1ccc1ccccc21 | HCT-15 colon | 3.9 µM |
| CC(C)(CO)N=Cc1ccccc1[O-].CC(C)(CO)N=Cc1ccccc1[O-].[Co+2] | HCT-15 colon | 69.7 µM |

Required: GI50, one value per compound below.
1. CCCn1cnc2c(SCc3ccccc3)nc(N)nc21
2. Cn1cc(CO)c2ccccc21
3. O=c1oc2ccc(F)cc2c(=O)n1-c1ccc(Br)cc1F

[out]
1: 37.8 µM; 2: 22.4 µM; 3: 1.29 µM
